Listed compounds paired with reported EC50
Target: 5HT2B receptors (Homo sapiens)
Construct: expressed in transfected cells; host or cells: CHO-K1 cells
Sequence (P41595 whole entry): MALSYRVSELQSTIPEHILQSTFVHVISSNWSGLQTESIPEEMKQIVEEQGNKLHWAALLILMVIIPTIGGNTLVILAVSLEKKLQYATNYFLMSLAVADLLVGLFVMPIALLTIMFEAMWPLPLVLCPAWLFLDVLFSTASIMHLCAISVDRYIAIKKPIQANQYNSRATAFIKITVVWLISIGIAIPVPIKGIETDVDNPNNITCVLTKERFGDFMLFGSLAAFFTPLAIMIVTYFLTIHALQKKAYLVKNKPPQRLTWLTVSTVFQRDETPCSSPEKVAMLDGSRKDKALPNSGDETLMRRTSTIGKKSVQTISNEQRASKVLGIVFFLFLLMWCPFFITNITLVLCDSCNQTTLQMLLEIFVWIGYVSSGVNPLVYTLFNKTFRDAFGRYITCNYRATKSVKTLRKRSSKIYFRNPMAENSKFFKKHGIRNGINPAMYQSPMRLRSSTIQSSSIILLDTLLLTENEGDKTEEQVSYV
Assay: Human 5-HT2B functional assay in CHO-K1 cells (calcium flux, FLIPR)
Format: cell-based
Details: CHO-K1 cells over-expressing 5HT2B, calcium flux; read-out: EC50 (μM), 5-HT2B Agonist Activity

Example compounds with recorded EC50:
# Compound, Measured
records = [
    ("Clc1ccc2c(c1)N1CCN(Cc3ccccc3)C[C@@H]1CCO2 [Example 186]", "> 10 µM"),
    ("c1coc(-c2cccc3c2OCC[C@H]2CNCCN32)c1 [Example 251]", "> 10 µM"),
    ("O=C1CC2CNCCN2c2cc(-c3cnc4ccccc4c3)ccc2N1 (stereo not drawn) [Example 62]", "0.9 µM"),
    ("Nc1ccc2c(c1)OCC[C@H]1CNCCN21 [Example 135]", "> 10 µM"),
    ("C[C@@H](Cc1ccccc1)Oc1ccc2c(c1)N1CCNCC1CC(=O)N2 (stereo partly drawn) [Example 160]", "> 10 µM"),
    ("O=C1CC2CNCCN2c2cc(-c3ccccc3F)ccc2N1 (stereo not drawn) [Example 70]", "> 10 µM"),
    ("O=C1CC2CNCCN2c2cc(Cc3ccccc3)ccc2N1 (stereo not drawn) [Example 185]", "> 10 µM"),
    ("c1ccc(-c2ccc3c(c2)N2CCNC[C@@H]2CCO3)cc1 [Example 187]", "6 µM"),
]

Please report EC50 for the following compound: FC(F)(F)c1ccc2c(c1)N1CCNC[C@@H]1CCO2 [Example 217]
0.09 µM

Please report EC50 for the following compound: CC(C)Cc1ccc2c(c1)N1CCNC[C@@H]1CCO2 [Example 213]
1 µM

Origin of measurements: patent US8546377B2
